measurementTarget: T1, recombinant human lymphotoxin-α homotrimer (human LTα3) (human, UniProt P01374 35-205)
T1 construct: Coated on plates in the ELISAs; also called rhLTα; lymphotoxin-α3 trimer
T1 sequence (looked up): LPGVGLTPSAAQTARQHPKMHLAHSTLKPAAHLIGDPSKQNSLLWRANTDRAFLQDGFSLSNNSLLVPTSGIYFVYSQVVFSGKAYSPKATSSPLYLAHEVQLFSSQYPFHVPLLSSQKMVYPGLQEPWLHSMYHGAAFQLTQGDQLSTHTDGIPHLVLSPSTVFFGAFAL
assayProtocol: plate-based ELISA against LTα
Please mark 1 if the recorded relative binding (EC50 of the variant / EC50 of version 5) is equal to or greater than 4 ratio, and 0 if it falls below.

| binder | classification |
| --- | --- |
| 3F12 version 31 (3F12.v5 with E62A, CDR-H2) (antibody, IgG1, V domains shown, Alanine-scan variant of 3F12.v5; human kappa / IgG1) VH: EVQLVESGGGLVQPGGSLRLSCAASGYTFSSYWIEWVRQAPGKGLEWVGEISPGSGSTNYNEAFKGRATFSADNSKNTAYLQMNSLRAEDTAVYYCADGYHGYWGQGTLVTVSS VL: DIQMTQSPSSLSASVGDRVTITCKSSQSLLYSTNQKNFLAWYQQKPGKAPKLLIYWASTRDSGVPSRFSGSGSGTDFTLTISSLQPEDFATYYCQQYYSYPRTFGQGTKVEIK | 0 |

Kindly determine if relative binding (EC50 of the variant / EC50 of version 5) recorded for 3F12 version 22 (3F12.v5 with Y94A, CDR-L3) (antibody, IgG1, V domains shown, Alanine-scan variant of 3F12.v5; human kappa / IgG1) VH: EVQLVESGGGLVQPGGSLRLSCAASGYTFSSYWIEWVRQAPGKGLEWVGEISPGSGSTNYNEEFKGRATFSADNSKNTAYLQMNSLRAEDTAVYYCADGYHGYWGQGTLVTVSS VL: DIQMTQSPSSLSASVGDRVTITCKSSQSLLYSTNQKNFLAWYQQKPGKAPKLLIYWASTRDSGVPSRFSGSGSGTDFTLTISSLQPEDFATYYCQQYYSAPRTFGQGTKVEIK is above or exactly 4 ratio.
1

Kindly determine if relative binding (EC50 of the variant / EC50 of version 5) recorded for 3F12 version 16 (3F12.v5 with K36A, CDR-L1) (antibody, IgG1, V domains shown, Alanine-scan variant of 3F12.v5; human kappa / IgG1) VH: EVQLVESGGGLVQPGGSLRLSCAASGYTFSSYWIEWVRQAPGKGLEWVGEISPGSGSTNYNEEFKGRATFSADNSKNTAYLQMNSLRAEDTAVYYCADGYHGYWGQGTLVTVSS VL: DIQMTQSPSSLSASVGDRVTITCKSSQSLLYSTNQANFLAWYQQKPGKAPKLLIYWASTRDSGVPSRFSGSGSGTDFTLTISSLQPEDFATYYCQQYYSYPRTFGQGTKVEIK is above or exactly 4 ratio.
0

Kindly determine if relative binding (EC50 of the variant / EC50 of version 5) recorded for 3F12 version 24 (3F12.v5 with G53A, CDR-H2) (antibody, IgG1, V domains shown, Alanine-scan variant of 3F12.v5; human kappa / IgG1) VH: EVQLVESGGGLVQPGGSLRLSCAASGYTFSSYWIEWVRQAPGKGLEWVGEISPASGSTNYNEEFKGRATFSADNSKNTAYLQMNSLRAEDTAVYYCADGYHGYWGQGTLVTVSS VL: DIQMTQSPSSLSASVGDRVTITCKSSQSLLYSTNQKNFLAWYQQKPGKAPKLLIYWASTRDSGVPSRFSGSGSGTDFTLTISSLQPEDFATYYCQQYYSYPRTFGQGTKVEIK is above or exactly 4 ratio.
1

Kindly determine if relative binding (EC50 of the variant / EC50 of version 5) recorded for 3F12 version 12 (3F12.v5 with Y102A, CDR-H3) (antibody, IgG1, V domains shown, Alanine-scan variant of 3F12.v5; human kappa / IgG1; also called 3F12 clone 12) VH: EVQLVESGGGLVQPGGSLRLSCAASGYTFSSYWIEWVRQAPGKGLEWVGEISPGSGSTNYNEEFKGRATFSADNSKNTAYLQMNSLRAEDTAVYYCADGYHGAWGQGTLVTVSS VL: DIQMTQSPSSLSASVGDRVTITCKSSQSLLYSTNQKNFLAWYQQKPGKAPKLLIYWASTRDSGVPSRFSGSGSGTDFTLTISSLQPEDFATYYCQQYYSYPRTFGQGTKVEIK is above or exactly 4 ratio.
0

Kindly determine if relative binding (EC50 of the variant / EC50 of version 5) recorded for 3F12 version 26 (3F12.v5 with S56A, CDR-H2) (antibody, IgG1, V domains shown, Alanine-scan variant of 3F12.v5; human kappa / IgG1) VH: EVQLVESGGGLVQPGGSLRLSCAASGYTFSSYWIEWVRQAPGKGLEWVGEISPGSGATNYNEEFKGRATFSADNSKNTAYLQMNSLRAEDTAVYYCADGYHGYWGQGTLVTVSS VL: DIQMTQSPSSLSASVGDRVTITCKSSQSLLYSTNQKNFLAWYQQKPGKAPKLLIYWASTRDSGVPSRFSGSGSGTDFTLTISSLQPEDFATYYCQQYYSYPRTFGQGTKVEIK is above or exactly 4 ratio.
0
